Tested on: SR
Test: NCI tumour cell line growth inhibition, 48 h
Calls of active or inactive are those of the source. Cut-off read from the data, not from the text of the source: active = GI50 up to about 1.1 µM and inactive = higher.
# output must be one of active, inactive

COc1cc(O)c(C(=O)/C=C/c2ccc(OC)c(OCc3ccccc3)c2)c(OC)c1 ... inactive
COc1cc2c(oc(=O)c3c4oc([Si](C)(C)C)cc4cc(OC)c23)c2cccc(OCc3ccccc3)c12 ... inactive
O=[N+]([O-])c1ccc2nc3n(c2c1)C(c1c(F)cccc1F)SC3 (stereo not drawn) ... inactive

Returns: the outcome recorded for Clc1cc(N/N=C(\c2ccccc2)c2ccccn2)ncn1 in this assay.
active

Returns: the outcome recorded for O=S(=O)(c1cc(Cl)ccc1Cl)N1CCN(c2ccc(Cl)c(Cl)c2)CC1 in this assay.
inactive

Returns: the outcome recorded for CN1CN(c2ccccc2)C2(CCN(CC(C)(c3ccc(F)cc3)C3OCCCO3)CC2)C1=O (stereo not drawn) in this assay.
inactive

Returns: the outcome recorded for Cc1c2c(n(C)c1C)C(=O)C1C(C2=O)C2(C)c3ccccc3C1(C)c1ccccc12 (stereo not drawn) in this assay.
inactive

Returns: the outcome recorded for CC(=O)O[C@H]1C(=O)[C@@]2(C)[C@H]([C@H](OC(=O)c3ccccc3)[C@]3(O)C[C@H](OC(=O)[C@H](O)[C@@H](NC(=O)C(C)(C)C)c4ccccc4)C(C)=C1C3(C)C)[C@]1(OC(C)=O)CO[C@@H]1C[C@@H]2O in this assay.
active

----------
Tested on: HL-60
Experiment: NCI tumour cell line growth inhibition, 48 h
Activity calls are given as the source filed them. Rule as the data show it: active = GI50 up to about 1.1 µM and inactive = higher.
# output must be one of active, inactive

Solved entries:
CCCCOCn1c(=O)[nH]c(=O)c2ccccc21 ... inactive
CC[n+]1c(/C=C/c2ccc(N(CCCl)CCCl)cc2)ccc2cc(NC(=O)/C=C/c3ccccc3)ccc21 ... active
CNC(=O)NS(=O)(=O)c1ccc(C)cc1.NS(=O)O ... inactive
CCCCC(=O)OC[n+]1ccc2c(C)c3[nH]c4ccc(OC)cc4c3c(C)c2c1 ... active
c1cncc(CSc2ncnc3[nH]cnc23)c1 ... inactive
O=C1NN=CN2C(=O)CCC12 (centres undefined) ... inactive

Please examine the following record next.
Returns: the outcome recorded for N#Cc1c(Cl)cc(Cl)n2c1nc1ccccc12 in this assay.
inactive

----------
Tested on: Hs-578T
Test: NCI tumour cell line growth inhibition, 48 h
Active and inactive are the calls of the source. Cut-off read from the data, not from the text of the source: active = GI50 up to about 1.1 µM and inactive = higher.
# output must be one of active, inactive

Solved entries:
CC[n+]1c(/C=C/c2ccc(N(CCCl)CCCl)cc2)ccc2cc(NC(=O)/C=C/c3ccccc3)ccc21 ... active
COC1=CC2=NCCc3n[nH]c(c32)C1=O ... inactive
CC(=O)c1ccc2c(c1)oc(=O)n2CCN1CCCCC1 ... inactive
COc1ccc(-c2cc(=O)c3c(O)c(OC)c(OC)c(OC)c3o2)cc1 ... inactive
CN1C(=O)C(C#N)C2C[C@@]1(C)Oc1ccccc12 (stereo partly specified) ... inactive

Returns: the outcome recorded for Cc1ccc(-c2ccc3c(c2)Sc2ccccc2O3)n1C in this assay.
active

Returns: the outcome recorded for O=c1oc2ccc3ccccc3c2cc1-c1nc2ccccc2s1 in this assay.
inactive

----------
Tested on: DLD-1
Assay: NCI tumour cell line growth inhibition, 48 h
Active and inactive are the calls of the source. No stated cut-off is given here; in the data, active = GI50 up to about 1.1 µM and inactive = higher.
Quick list: GI50 per entry.

CC1(C)OC[C@H](C(=N)OCc2ccccc2)O1 ... > 100 µM (inactive)

I am curious: what GI50 value has been reported for O=C(c1ccccc1)c1ccc2cccc(O)c2n1 ?
27 µM (inactive)

I am curious: what GI50 value has been reported for O=C1C(Br)=C(c2ccccc2)C(c2ccccc2)=C1c1ccccc1 ?
1.82 µM (inactive)

I am curious: what GI50 value has been reported for Cc1cccc(-c2nc3c(C(=O)NCCN(C)C)cccc3[nH]2)c1 ?
0.407 µM (active)

I am curious: what GI50 value has been reported for CCOC(=O)c1ccc(/C(C)=N/NC(N)=S)cc1 ?
> 100 µM (inactive)

I am curious: what GI50 value has been reported for Cc1cc(NS(=O)(=O)c2ccc(NC(=O)c3cccc4c(=O)c5ccccc5[nH]c34)cc2)no1 ?
61.4 µM (inactive)

I am curious: what GI50 value has been reported for CCOC(=O)C(=O)Nc1nc2c(s1)C(=O)c1ccccc1C2=O ?
15.3 µM (inactive)

I am curious: what GI50 value has been reported for O=[N+]([O-])c1ccc(-c2noc(-c3ccc(Cl)cc3)c2C2=NCCN2)cc1 ?
> 100 µM (inactive)

I am curious: what GI50 value has been reported for N/C(=N\O)N/N=C/c1ncccc1O ?
5.65 µM (inactive)

I am curious: what GI50 value has been reported for CCCCC(=O)OC[n+]1ccc2c(C)c3[nH]c4ccc(OC)cc4c3c(C)c2c1 ?
0.32 µM (active)
